Test system: Principal Bile Acids in Jejunum
EXPERIMENTAL_PROTOCOL: Bile acid composition of jejunum after oral administration (GC-MS)
Format: in vivo, Sprague-Dawley rats
TEST_CONTEXT: oral gavage 250 mg/day, 4 days; mean ± SEM
Description: Male Sprague-Dawley rats (Harlan Sprague-Dawley, Inc., Indianapolis, Ind.), weighing 210-290 g, were maintained on a 12-hour light-dark cycle and fed standard laboratory chow ad libitum for 3 days. The animals were then transferred to metabolic cages in which they were housed individually and fed the same diet. UDCA, UDCA 3-sulfate, UDCA 7-sulfate, and UDCA 3,7-disulfate were administered by gavage at a dose of 250 mg/day for 4 consecutive days. […] Body weights of the animals were measured each day. […]
EXPERIMENTAL_ENDPOINT: Δ^22-UDCA percent of jejunal bile acids

- C[C@H](CCC(=O)O)[C@H]1CC[C@H]2[C@@H]3[C@@H](O)C[C@@H]4C[C@H](O)CC[C@]4(C)[C@H]3CC[C@]12C [UDCA, reference compound]: 14.5%
- C[C@H](CCC(=O)O)[C@H]1CC[C@H]2[C@@H]3[C@@H](OS(=O)(=O)O)C[C@@H]4C[C@H](OS(=O)(=O)O)CC[C@]4(C)[C@H]3CC[C@]12C [UDCA-DS, ursodeoxycholic acid 3,7-disulfate]: 2.1%
- C[C@H](CCC(=O)O)[C@H]1CC[C@H]2[C@@H]3[C@@H](OS(=O)(=O)O)C[C@@H]4C[C@H](O)CC[C@]4(C)[C@H]3CC[C@]12C [UDCA-7S, ursodeoxycholic acid 7-sulfate]: 3.1%
- C[C@H](CCC(=O)O)[C@H]1CC[C@H]2[C@@H]3[C@@H](O)C[C@@H]4C[C@H](OS(=O)(=O)O)CC[C@]4(C)[C@H]3CC[C@]12C [UDCA-3S, ursodeoxycholic acid 3-sulfate]: 9.2%

----------
Tested on: bile acids secreted in bile
EXPERIMENTAL_PROTOCOL: Biliary bile acid composition during i.v. infusion (GC-MS)
Assay type: in vivo, Sprague-Dawley rats
TEST_CONTEXT: 80-90 mins
EXPERIMENTAL_ENDPOINT: Relative % composition in bile: UDCA

- C[C@H](CCC(=O)O)[C@H]1CC[C@H]2[C@@H]3[C@@H](O)C[C@@H]4C[C@H](O)CC[C@]4(C)[C@H]3CC[C@]12C [UDCA, reference compound]: 79.5%
- C[C@H](CCC(=O)O)[C@H]1CC[C@H]2[C@@H]3[C@@H](OS(=O)(=O)O)C[C@@H]4C[C@H](OS(=O)(=O)O)CC[C@]4(C)[C@H]3CC[C@]12C [UDCA-DS, ursodeoxycholic acid 3,7-disulfate]: 79.1%
- C[C@H](CCC(=O)O)[C@H]1CC[C@H]2[C@@H]3[C@@H](O)C[C@@H]4C[C@H](OS(=O)(=O)O)CC[C@]4(C)[C@H]3CC[C@]12C [UDCA-3S, ursodeoxycholic acid 3-sulfate]: 67.7%
- C[C@H](CCC(=O)O)[C@H]1CC[C@H]2[C@@H]3[C@@H](OS(=O)(=O)O)C[C@@H]4C[C@H](O)CC[C@]4(C)[C@H]3CC[C@]12C [UDCA-7S, ursodeoxycholic acid 7-sulfate]: 78.8%

----------
EXPERIMENTAL_PROTOCOL: Urinary excretion of UDCA after oral administration
Type: in vivo, Sprague-Dawley rats
Reported Urinary excretion of sulfate conjugates of UDCA values follow for various molecules
EXPERIMENTAL_ENDPOINT: Urinary excretion of sulfate conjugates of UDCA

• C[C@H](CCC(=O)O)[C@H]1CC[C@H]2[C@@H]3[C@@H](O)C[C@@H]4C[C@H](OS(=O)(=O)O)CC[C@]4(C)[C@H]3CC[C@]12C [UDCA-3S, ursodeoxycholic acid 3-sulfate] = 2.7 nmol/day
• C[C@H](CCC(=O)O)[C@H]1CC[C@H]2[C@@H]3[C@@H](OS(=O)(=O)O)C[C@@H]4C[C@H](OS(=O)(=O)O)CC[C@]4(C)[C@H]3CC[C@]12C [UDCA-DS, ursodeoxycholic acid 3,7-disulfate] = 217.1 nmol/day
• C[C@H](CCC(=O)O)[C@H]1CC[C@H]2[C@@H]3[C@@H](OS(=O)(=O)O)C[C@@H]4C[C@H](O)CC[C@]4(C)[C@H]3CC[C@]12C [UDCA-7S, ursodeoxycholic acid 7-sulfate] = 317.8 nmol/day
• C[C@H](CCC(=O)O)[C@H]1CC[C@H]2[C@@H]3[C@@H](O)C[C@@H]4C[C@H](O)CC[C@]4(C)[C@H]3CC[C@]12C [UDCA, reference compound] = 4.6 nmol/day

----------
Reported Bile flow, maximum values follow for various molecules
Tested on: bile-flow
EXPERIMENTAL_PROTOCOL: Bile-flow and bile acid secretion during i.v. infusion
Assay type: in vivo, Sprague-Dawley rats
TEST_CONTEXT: i.v. infusion 0.5, 1.0, 2.0 μmol/min/100 g; mean ± SEM, six animals
EXPERIMENTAL_ENDPOINT: Bile flow, maximum (μl/min/g liver)

- C[C@H](CCC(=O)O)[C@H]1CC[C@H]2[C@@H]3[C@@H](OS(=O)(=O)O)C[C@@H]4C[C@H](OS(=O)(=O)O)CC[C@]4(C)[C@H]3CC[C@]12C [UDCA-DS, ursodeoxycholic acid 3,7-disulfate]: 5.92
- C[C@H](CCC(=O)O)[C@H]1CC[C@H]2[C@@H]3[C@@H](O)C[C@@H]4C[C@H](OS(=O)(=O)O)CC[C@]4(C)[C@H]3CC[C@]12C [UDCA-3S, ursodeoxycholic acid 3-sulfate]: 3.34
- C[C@H](CCC(=O)O)[C@H]1CC[C@H]2[C@@H]3[C@@H](O)C[C@@H]4C[C@H](O)CC[C@]4(C)[C@H]3CC[C@]12C [UDCA, reference compound]: 4.88
- C[C@H](CCC(=O)O)[C@H]1CC[C@H]2[C@@H]3[C@@H](OS(=O)(=O)O)C[C@@H]4C[C@H](O)CC[C@]4(C)[C@H]3CC[C@]12C [UDCA-7S, ursodeoxycholic acid 7-sulfate]: 5.83

----------
Reported Cholic acid mass in colon values follow for various compounds
System: Principal Bile Acids in Colon
EXPERIMENTAL_PROTOCOL: Bile acid composition of colon after oral administration (GC-MS)
Format: in vivo, Sprague-Dawley rats
TEST_CONTEXT: oral gavage 250 mg/day, 4 days; mean ± SEM
EXPERIMENTAL_ENDPOINT: Cholic acid mass in colon (mg)

• C[C@H](CCC(=O)O)[C@H]1CC[C@H]2[C@@H]3[C@@H](O)C[C@@H]4C[C@H](OS(=O)(=O)O)CC[C@]4(C)[C@H]3CC[C@]12C [UDCA-3S, ursodeoxycholic acid 3-sulfate] = 0.44
• C[C@H](CCC(=O)O)[C@H]1CC[C@H]2[C@@H]3[C@@H](O)C[C@@H]4C[C@H](O)CC[C@]4(C)[C@H]3CC[C@]12C [UDCA, reference compound] = 0.24
• C[C@H](CCC(=O)O)[C@H]1CC[C@H]2[C@@H]3[C@@H](OS(=O)(=O)O)C[C@@H]4C[C@H](OS(=O)(=O)O)CC[C@]4(C)[C@H]3CC[C@]12C [UDCA-DS, ursodeoxycholic acid 3,7-disulfate] = 0.23
• C[C@H](CCC(=O)O)[C@H]1CC[C@H]2[C@@H]3[C@@H](OS(=O)(=O)O)C[C@@H]4C[C@H](O)CC[C@]4(C)[C@H]3CC[C@]12C [UDCA-7S, ursodeoxycholic acid 7-sulfate] = 0.09

----------
Test system: Principal Bile Acids in Liver
EXPERIMENTAL_PROTOCOL: Bile acid composition of liver tissue after oral administration (GC-MS)
Format: in vivo, Sprague-Dawley rats
TEST_CONTEXT: oral gavage 250 mg/day, 4 days
Description: Male Sprague-Dawley rats (Harlan Sprague-Dawley, Inc., Indianapolis, Ind.), weighing 210-290 g, were maintained on a 12-hour light-dark cycle and fed standard laboratory chow ad libitum for 3 days. The animals were then transferred to metabolic cages in which they were housed individually and fed the same diet. […] Body weights of the animals were measured each day. […] Data are expressed as mean±SEM or as mean values of all animals when extracts were pooled before analysis. […]
EXPERIMENTAL_ENDPOINT: Deoxycholic acid concentration in liver (nmol/g)

- C[C@H](CCC(=O)O)[C@H]1CC[C@H]2[C@@H]3[C@@H](O)C[C@@H]4C[C@H](O)CC[C@]4(C)[C@H]3CC[C@]12C [UDCA, reference compound]: 22.5
- C[C@H](CCC(=O)O)[C@H]1CC[C@H]2[C@@H]3[C@@H](OS(=O)(=O)O)C[C@@H]4C[C@H](OS(=O)(=O)O)CC[C@]4(C)[C@H]3CC[C@]12C [UDCA-DS, ursodeoxycholic acid 3,7-disulfate]: 17.3
- C[C@H](CCC(=O)O)[C@H]1CC[C@H]2[C@@H]3[C@@H](O)C[C@@H]4C[C@H](OS(=O)(=O)O)CC[C@]4(C)[C@H]3CC[C@]12C [UDCA-3S, ursodeoxycholic acid 3-sulfate]: 52.6
- C[C@H](CCC(=O)O)[C@H]1CC[C@H]2[C@@H]3[C@@H](OS(=O)(=O)O)C[C@@H]4C[C@H](O)CC[C@]4(C)[C@H]3CC[C@]12C [UDCA-7S, ursodeoxycholic acid 7-sulfate]: 14.9
